Recorded melting point values for a group of molecules are listed next.

{"Molecule": "CN(C)CCNC(=O)N1CCN(c2ccccc2)CC1", "Reported measurement": "88 to 90 °C"}
{"Molecule": "O=C1N(Cc2ccc3nonc3c2)c2ccccc2C12COc1cc3c(cc12)OCO3 (centres undefined)", "Reported measurement": "163 to 165 °C"}
{"Molecule": "CC=CC=CC(O)c1ccc(-c2nc(C)c3c(n2)sc2c(OCC)nc(N4CCNCC4)nc23)cc1 (centres undefined)", "Reported measurement": "149 to 150 °C"}
{"Molecule": "Cc1cc(Cl)n2nc(CN=[N+]=[N-])nc2n1", "Reported measurement": "130 to 132 °C"}
{"Molecule": "COc1ccc(C(O)(c2ccccc2)c2ccc(OC)cc2)cc1", "Reported measurement": "122 to 124 °C"}
{"Molecule": "COc1cc(CCNC(=O)Cc2ccc(Br)cc2)cc(OC)c1", "Reported measurement": "86 to 88 °C"}
{"Molecule": "CC1(C)CC(O)CC(C)(C)N1OC1CCCCC1", "Reported measurement": "74 to 78 °C"}
{"Molecule": "CC(C)(C)OC(=O)C[C@H](NC(=O)CNC(=O)c1csc(NC(=O)NCc2ccccc2)n1)C(=O)NCc1ccccc1", "Reported measurement": "123 °C"}

// recorded melting point for CCNc1ccc2c(c1)N1CCN=C1S2 : 239 to 246 °C

// recorded melting point for Nc1nc(Cc2ccccc2)ncc1C=S : 136 to 139 °C

----------
Recorded melting point values for a group of compounds are listed next.

{"Compound": "CC[C@@]1(O)CC(=O)c2c(OC)ccc(OC)c2C1", "melting point": "132 to 134 °C"}
{"Compound": "CCS(=O)(=O)N(Cc1cccnc1)c1ccc(F)cc1F", "melting point": "91 to 92 °C"}

// recorded melting point for NC(=O)N(O)CCNC(=O)c1ccc(Oc2ccccc2)cc1 : 185 to 186 °C

// recorded melting point for CSc1cc(C(=O)CBr)ccc1C : 85 to 86 °C

// recorded melting point for O=C(O)C1CCc2ccc([N+](=O)[O-])cc21 (configuration not stated) : 92 to 94 °C

// recorded melting point for Cc1noc(NS(=O)(=O)c2ccc(I)cc2)c1Br : 166 to 173 °C

// recorded melting point for Nc1cc(Cl)cc(C(F)(F)F)c1N : 53 °C

----------
Result type: melting point

Example results:
{"Compound": "O=C(C=Cc1ccc(-c2ccc3ncnc(Nc4ccc(OCc5cccc(F)c5)c(Cl)c4)c3c2)s1)NOC1CCCCO1 (centres undefined)", "Reported measurement": "166 °C"}
{"Compound": "COC(=O)c1sc2ccccc2c1OCC(C)=O", "Reported measurement": "57 to 58 °C"}
{"Compound": "NC(=O)c1ccc(CCBr)cc1", "Reported measurement": "152 to 153 °C"}

// recorded melting point for CC(C)(Cl)C(COCc1ccc([N+](=O)[O-])o1)N=O (centres undefined) : 134 to 135 °C
